- Test system: HuT 78
- test.summary: inhibition of growth of HuT 78 cells, 3 day continuous cisplatin exposure
- Type: cell-based, human
- stated.conditions: continuous exposure to cisplatin for 3 days, 50% reduction in cell number
result.type: IC50 (nM)
Only the number, expressed in nM, is required.

For record N.N.[Cl][Pt][Cl] [cisplatin] the listed IC50 is 830
